# Assay System: UniProt:P70579
# Protocol Notes: Agonist activity in rat at Metabotropic glutamate receptor 8 expressed in HEK293 cells
# Format: functional, cell-based
Readout Name: pEC50
Scale: pEC50 equals -log10([C]), with [C] in mol/L.

[in] Given the entry N[C@@H](CCC(=O)O)C(=O)O [GLUTAMIC ACID] , report its measured pEC50.
[out] 5.10

====

# Assay System: Metabotropic glutamate receptor 2 (Rattus norvegicus, UniProt P31421)
# Sequence (P31421 whole entry): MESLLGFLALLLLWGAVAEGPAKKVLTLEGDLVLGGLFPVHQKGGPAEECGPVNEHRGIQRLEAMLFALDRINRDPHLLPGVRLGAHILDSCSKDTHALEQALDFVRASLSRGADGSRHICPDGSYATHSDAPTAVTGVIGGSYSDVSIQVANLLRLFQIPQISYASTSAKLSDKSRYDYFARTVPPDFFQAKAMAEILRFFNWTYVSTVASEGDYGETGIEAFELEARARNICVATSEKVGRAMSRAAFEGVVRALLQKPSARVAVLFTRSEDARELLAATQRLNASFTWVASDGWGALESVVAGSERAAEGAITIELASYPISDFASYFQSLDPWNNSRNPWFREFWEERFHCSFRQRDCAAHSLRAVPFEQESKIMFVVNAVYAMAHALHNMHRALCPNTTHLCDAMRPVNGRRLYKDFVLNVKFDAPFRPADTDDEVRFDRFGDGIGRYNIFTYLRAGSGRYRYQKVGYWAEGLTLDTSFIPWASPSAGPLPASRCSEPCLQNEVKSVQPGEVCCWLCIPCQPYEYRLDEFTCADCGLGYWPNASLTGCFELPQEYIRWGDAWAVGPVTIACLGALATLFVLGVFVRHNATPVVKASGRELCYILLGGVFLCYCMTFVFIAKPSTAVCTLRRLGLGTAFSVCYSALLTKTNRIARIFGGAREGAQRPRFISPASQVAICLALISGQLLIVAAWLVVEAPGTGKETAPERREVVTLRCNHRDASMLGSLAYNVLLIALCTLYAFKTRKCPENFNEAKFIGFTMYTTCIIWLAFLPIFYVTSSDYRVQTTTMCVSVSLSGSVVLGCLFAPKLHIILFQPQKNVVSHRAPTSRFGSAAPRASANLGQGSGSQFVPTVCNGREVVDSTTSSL
# Protocol Notes: Agonist activity in rat at mGlu2 receptor expressed in HEK293 cells
Give measured pEC50 for each item. Keep answers brief.
Quick note: pEC50 means taking -log10 of the concentration in moles per liter.

[in] Please state recorded pEC50 (tested on Metabotropic glutamate receptor 2 (Rattus norvegicus, UniProt P31421)) of N[C@@H](C[C@H](O)C(=O)O)C(=O)O
[out] 3.86

[in] Request: pEC50, test system Metabotropic glutamate receptor 2 (Rattus norvegicus, UniProt P31421), entry N[C@@H](C[C@@H](O)C(=O)O)C(=O)O
[out] 3.79

====

# Assay System: Metabotropic glutamate receptor 8 (Rattus norvegicus)
# Sequence (P70579 whole entry): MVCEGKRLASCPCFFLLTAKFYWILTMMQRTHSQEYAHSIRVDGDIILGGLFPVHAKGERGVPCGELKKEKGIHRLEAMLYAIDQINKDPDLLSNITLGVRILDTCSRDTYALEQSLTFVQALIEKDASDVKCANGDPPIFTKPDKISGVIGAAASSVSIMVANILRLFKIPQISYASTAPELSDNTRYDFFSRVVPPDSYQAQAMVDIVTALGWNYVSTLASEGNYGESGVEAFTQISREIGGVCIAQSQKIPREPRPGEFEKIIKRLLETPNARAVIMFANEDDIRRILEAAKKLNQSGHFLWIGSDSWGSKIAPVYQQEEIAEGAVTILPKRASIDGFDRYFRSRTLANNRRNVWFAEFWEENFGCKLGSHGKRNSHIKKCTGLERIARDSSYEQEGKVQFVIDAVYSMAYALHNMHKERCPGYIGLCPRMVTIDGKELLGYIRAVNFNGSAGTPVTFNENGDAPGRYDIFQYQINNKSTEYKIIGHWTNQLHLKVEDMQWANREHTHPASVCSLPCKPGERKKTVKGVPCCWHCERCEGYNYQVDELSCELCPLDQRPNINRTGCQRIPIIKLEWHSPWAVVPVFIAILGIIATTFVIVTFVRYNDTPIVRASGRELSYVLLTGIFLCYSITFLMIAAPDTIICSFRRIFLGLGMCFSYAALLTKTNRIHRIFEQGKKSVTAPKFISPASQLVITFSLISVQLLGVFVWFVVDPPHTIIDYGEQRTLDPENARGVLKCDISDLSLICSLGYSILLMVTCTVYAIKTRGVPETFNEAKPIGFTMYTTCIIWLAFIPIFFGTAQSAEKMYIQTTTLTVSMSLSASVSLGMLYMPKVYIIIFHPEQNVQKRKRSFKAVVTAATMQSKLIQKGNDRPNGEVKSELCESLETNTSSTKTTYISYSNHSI
# Protocol Notes: Agonist activity in rat at mGlu8a receptor expressed in HEK293 cells
# Type: functional, cell-based
Readout Name: pEC50
Keep it numeric: pEC50 is minus log10 of the concentration in mol/L.

[in] Report pEC50 for N[C@@H](C[C@H](O)C(=O)O)C(=O)O please.
[out] 4.28

[in] Quick check: pEC50 of N[C@@H](C[C@@H](O)C(=O)O)C(=O)O ?
[out] 4.16

====

Can you tell me EC50 for the items I'm about to list?
# Assay System: Metabotropic glutamate receptor 1 (Rattus norvegicus)
# Sequence (P23385 whole entry): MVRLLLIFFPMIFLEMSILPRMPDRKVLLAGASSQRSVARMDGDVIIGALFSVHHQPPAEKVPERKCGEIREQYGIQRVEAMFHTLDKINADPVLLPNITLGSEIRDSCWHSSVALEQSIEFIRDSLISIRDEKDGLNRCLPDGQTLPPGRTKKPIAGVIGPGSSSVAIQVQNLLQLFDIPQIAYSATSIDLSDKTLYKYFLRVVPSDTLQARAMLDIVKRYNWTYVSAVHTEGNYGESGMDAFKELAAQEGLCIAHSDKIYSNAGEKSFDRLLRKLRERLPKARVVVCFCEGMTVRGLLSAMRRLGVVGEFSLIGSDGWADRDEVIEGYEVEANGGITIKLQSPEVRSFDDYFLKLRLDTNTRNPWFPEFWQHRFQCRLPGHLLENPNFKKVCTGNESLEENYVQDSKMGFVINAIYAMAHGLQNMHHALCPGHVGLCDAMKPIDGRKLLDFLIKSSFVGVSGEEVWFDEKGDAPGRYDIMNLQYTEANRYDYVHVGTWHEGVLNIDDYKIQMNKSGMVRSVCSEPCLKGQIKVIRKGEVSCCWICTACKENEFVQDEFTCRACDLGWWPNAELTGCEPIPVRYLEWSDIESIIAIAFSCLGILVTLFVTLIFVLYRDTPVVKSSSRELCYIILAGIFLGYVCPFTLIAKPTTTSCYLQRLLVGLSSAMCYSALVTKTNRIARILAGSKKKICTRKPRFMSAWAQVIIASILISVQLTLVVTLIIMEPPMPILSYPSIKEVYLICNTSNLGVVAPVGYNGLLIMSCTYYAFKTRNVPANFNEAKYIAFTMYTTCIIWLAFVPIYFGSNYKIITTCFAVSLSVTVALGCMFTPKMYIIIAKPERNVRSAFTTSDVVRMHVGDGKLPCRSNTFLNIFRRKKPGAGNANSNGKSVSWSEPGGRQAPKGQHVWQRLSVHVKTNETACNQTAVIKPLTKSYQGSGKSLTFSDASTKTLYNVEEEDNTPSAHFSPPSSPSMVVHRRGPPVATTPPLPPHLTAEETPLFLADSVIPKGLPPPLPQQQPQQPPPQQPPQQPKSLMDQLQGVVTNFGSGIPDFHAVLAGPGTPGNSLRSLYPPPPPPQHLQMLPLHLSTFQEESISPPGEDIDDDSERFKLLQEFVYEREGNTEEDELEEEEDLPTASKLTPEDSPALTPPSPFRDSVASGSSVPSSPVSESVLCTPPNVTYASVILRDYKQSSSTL
# Protocol Notes: Agonist activity in rat at mGlu1a receptor expressed in HEK293 cells
Give just the number in µM; leave the unit off.

[in] Entry under review: N[C@@H](C[C@H](O)C(=O)O)C(=O)O . Reported EC50?
[out] 11

[in] Which EC50 is reported for this compound? N[C@@H](C[C@@H](O)C(=O)O)C(=O)O
[out] 373
